Values from patent US20040102454A1

- System: MES-SA (Taxol Sensitive) human uterine sarcoma tumor cell line
- procedure-text: Drug resistant cell line pair, cytotoxicity
- Assay type: cell-based
- condition-info: CsA Pretreat
assay-readout: IC50

query: Please state recorded IC50 (tested on MES-SA (Taxol Sensitive) human uterine sarcoma tumor cell line) of CC(C)(C)c1[nH]cnc1/C=C1\NC(=O)[C@H](Cc2ccccc2)NC1=O
result: 0.162 µM

----------
- Test system: RXF-6311
- procedure-text: HCC panel assay, sulforhodamine B
- Format: cell-based
- condition-info: Homo sapiens; RXF-6311, Renal; (−)-PLH content 24.1%; read-out: GL50 (the source's name)
assay-readout: pIC50
Numbers only, as −log10 of the molar value.

query: # input compound: C=CC(C)(C)c1[nH]cnc1/C=C1\NC(=O)[C@H](Cc2ccccc2)NC1=O (racemic) ; wanted: its pIC50
result: 5.72

----------
- Tested on: P388 cells
- procedure-text: P388 proliferation, Alamar Blue assay
- Assay type: cell-based, murine
- condition-info: Mus musculus, P388; means (±SEM) of three experiments (Table 9); read-out: IC50 P388 proliferation
assay-readout: pIC50
Numbers only, as −log10 of the molar value.

C=CC(C)(C)c1c(/C=C2\NC(=O)[C@H](Cc3ccccc3)NC2=O)ncn1C: 6.02

Consider the record given below.
query: Query (molecule): C=CC(C)(C)c1[nH]cnc1/C=C1\NC(=O)[C@@H](Cc2ccccc2)NC1=O [(+)-phenylahistin] ; field requested: pIC50
result: 5.00

----------
- System: MDA-MB-231
- procedure-text: HCC panel assay, sulforhodamine B
- Format: cell-based
- condition-info: Homo sapiens; MDA-MB-231, Breast; (−)-PLH content 24.1%; read-out: GL50 (the source's name)
assay-readout: IC50 (nM)
One number for each entry, in nM.

query: Tell me the measured IC50 of C=CC(C)(C)c1[nH]cnc1/C=C1\NC(=O)[C@H](Cc2ccccc2)NC1=O (racemic) , please.
result: 640

----------
- System: MKN7
- procedure-text: HCC panel assay, sulforhodamine B
- Assay type: cell-based
- condition-info: Homo sapiens, MKN-7; MKN7, Stomach; (−)-PLH content 24.1%; read-out: GL50 (the source's name)
assay-readout: pIC50
One number for each entry, as −log10 of the molar value.

query: Which measured pIC50 value corresponds to C=CC(C)(C)c1[nH]cnc1/C=C1\NC(=O)[C@H](Cc2ccccc2)NC1=O (racemic) [PLH, phenylahistin] ?
result: 6.41

----------
- Test system: CCD-27sk Fibroblast (normal human fibroblast)
- procedure-text: Tumor Panel Screen, Resazurin cytotoxicity assay
- Format: cell-based
assay-readout: IC50

query: Tell me the measured IC50 of CC(C)(C)c1[nH]cnc1/C=C1\NC(=O)[C@H](Cc2ccccc2)NC1=O [t-butyl-phenylahistin] , please.
result: > 20 µM

----------
- Tested on: P388 murine leukemia cells
- procedure-text: Cytotoxic effects of the phenylahistin enantiomers (Example 8)
- Format: cell-based
- condition-info: Mus musculus, (−) 92.2% e.e., (+) 97.8% e.e.
assay-readout: pIC50
Answers are plain numbers, as −log10 of the molar value.

C=CC(C)(C)c1[nH]cnc1/C=C1\NC(=O)[C@H](Cc2ccccc2)NC1=O [(−)-phenylahistin]: 6.46

Continue with the molecule presented below.
query: What does the record list as pIC50 for C=CC(C)(C)c1[nH]cnc1/C=C1\NC(=O)[C@@H](Cc2ccccc2)NC1=O [(+)-phenylahistin] ?
result: 4.42

----------
- Tested on: HCC2998
- procedure-text: HCC panel assay, sulforhodamine B
- Assay type: cell-based
- condition-info: Homo sapiens, HCC 2998; HCC2998, Colon; (−)-PLH content 24.1%; read-out: GL50 (the source's name)
assay-readout: pIC50
Answers are plain numbers, as −log10 of the molar value.

query: Find the recorded pIC50 belonging to C=CC(C)(C)c1[nH]cnc1/C=C1\NC(=O)[C@H](Cc2ccccc2)NC1=O (racemic) and report it.
result: 5.96

----------
Please provide measured pIC50 for the entries that follow.
- Tested on: K562 (leukemia)
- procedure-text: Antiproliferative activity, MTT assay (Table 7)
- Assay type: cell-based
- condition-info: Homo sapiens, optical purity over 99.8%
- Protocol: In order to examine detailed biological activity, especially antitumor activity of both (+)- and (−)-phenylahistin, resolution of (+)- and (−)-phenylahistin using chiral HPLC was conducted. By repeating chiral separation twice or three times, each enantiomer with an optical purity over 99.8% was obtained, and each enantiomer was recrystallizes from ethanol-hexane mixture. […]
Answers are plain numbers, as −log10 of the molar value.

C=CC(C)(C)c1[nH]cnc1/C=C1\NC(=O)[C@@H](Cc2ccccc2)NC1=O [(+)-phenylahistin]: 5.00

query: API: value(readout=pIC50, system=K562 (leukemia)) for record C=CC(C)(C)c1[nH]cnc1/C=C1\NC(=O)[C@H](Cc2ccccc2)NC1=O [(−)-phenylahistin]
result: 6.72

----------
- Test system: HT-29
- procedure-text: HCC panel assay, sulforhodamine B
- Format: cell-based
- condition-info: Homo sapiens; HT-29, Colon; (−)-PLH content 24.1%; read-out: GL50 (the source's name)
- Description: The antitumor activity of PLH was evaluated by the Human Cancer Cell Line Panel (HCC panel) assay, see Yamori T., Jap. J Cancer Chemother., (1997), 24, 129-35. This HCC panel consists of 38 tumor cell lines including 7 lung cancer, 6 stomach, 6 colon, 5 ovary, 6 central nerve system, 5 breast, 2 kidney and 1 melanoma cell lines. Each tumor cell was seeded in 96-well tissue culture plates and incubated overnight. […]
assay-readout: pIC50
Numbers only, as −log10 of the molar value.

query: Lab request: please report pIC50 under test system HT-29 for C=CC(C)(C)c1[nH]cnc1/C=C1\NC(=O)[C@H](Cc2ccccc2)NC1=O (racemic)
result: 6.40

----------
- Tested on: HCT-15
- procedure-text: HCC panel assay, sulforhodamine B
- Format: cell-based
- condition-info: Homo sapiens; HCT-15, Colon; (−)-PLH content 24.1%; read-out: GL50 (the source's name)
assay-readout: IC50 (nM)
One number for each entry, in nM.

query: Which IC50 value belongs to C=CC(C)(C)c1[nH]cnc1/C=C1\NC(=O)[C@H](Cc2ccccc2)NC1=O (racemic) [PLH, phenylahistin] ?
result: 490
